These entries and their values trace back to patent US20210388087A1.

Target: T1, Human CD137 ECD (human)
T1 construct: also called 4-1BB
T1 sequence (chain, as listed by the source limits assumed): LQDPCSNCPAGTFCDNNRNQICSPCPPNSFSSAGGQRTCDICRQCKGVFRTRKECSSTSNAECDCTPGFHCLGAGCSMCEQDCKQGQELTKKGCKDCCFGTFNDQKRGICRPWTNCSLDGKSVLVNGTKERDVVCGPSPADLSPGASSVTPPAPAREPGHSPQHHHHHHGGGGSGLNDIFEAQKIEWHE
Experiment: single mutant vs template dBBDu183H
fold change of affinity reference
Respond numerically; units are fold and should not be typed.

Some binders with known fold change of affinity results, for comparison:
• H183/L072 VH A60M (antibody, name in Kabat numbering, V domains shown) VH: QVQLVESGGGLVQPGRSLRLSCAASGFTFSNAWMHWVRQAPGKGLEWVAQIKDKGNAYAAYYMPSVKGRFTISRDDSKNSIYLQMNSLKTEDTAVYYCHYVHYASASTVLPAFGVDAWGQGTTVTVSS VL: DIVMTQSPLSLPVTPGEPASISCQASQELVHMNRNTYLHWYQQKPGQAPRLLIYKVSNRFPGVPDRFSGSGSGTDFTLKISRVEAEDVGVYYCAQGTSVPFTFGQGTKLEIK = 1
• H183/L072 VH A56D (antibody, name in Kabat numbering, V domains shown) VH: QVQLVESGGGLVQPGRSLRLSCAASGFTFSNAWMHWVRQAPGKGLEWVAQIKDKGNAYDAYYAPSVKGRFTISRDDSKNSIYLQMNSLKTEDTAVYYCHYVHYASASTVLPAFGVDAWGQGTTVTVSS VL: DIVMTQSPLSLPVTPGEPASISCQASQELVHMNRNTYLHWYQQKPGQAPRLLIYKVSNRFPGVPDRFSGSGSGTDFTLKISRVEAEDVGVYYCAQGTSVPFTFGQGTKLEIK = 0.3
• H183/L072 VH I51M (antibody, name in Kabat numbering, V domains shown) VH: QVQLVESGGGLVQPGRSLRLSCAASGFTFSNAWMHWVRQAPGKGLEWVAQMKDKGNAYAAYYAPSVKGRFTISRDDSKNSIYLQMNSLKTEDTAVYYCHYVHYASASTVLPAFGVDAWGQGTTVTVSS VL: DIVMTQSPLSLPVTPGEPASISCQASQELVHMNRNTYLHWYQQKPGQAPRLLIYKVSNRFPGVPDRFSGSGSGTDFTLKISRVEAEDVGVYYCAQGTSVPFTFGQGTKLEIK = 0.2
• H183/L072 VH A54M (antibody, name in Kabat numbering, V domains shown) VH: QVQLVESGGGLVQPGRSLRLSCAASGFTFSNAWMHWVRQAPGKGLEWVAQIKDKGNMYAAYYAPSVKGRFTISRDDSKNSIYLQMNSLKTEDTAVYYCHYVHYASASTVLPAFGVDAWGQGTTVTVSS VL: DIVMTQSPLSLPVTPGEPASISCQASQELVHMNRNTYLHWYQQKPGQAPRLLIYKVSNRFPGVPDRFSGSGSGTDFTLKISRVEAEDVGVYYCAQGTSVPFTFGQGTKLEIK = 1

Next up:
State its fold change of affinity: H183/L072 VH D101A (antibody, name in Kabat numbering, V domains shown) VH: QVQLVESGGGLVQPGRSLRLSCAASGFTFSNAWMHWVRQAPGKGLEWVAQIKDKGNAYAAYYAPSVKGRFTISRDDSKNSIYLQMNSLKTEDTAVYYCHYVHYASASTVLPAFGVAAWGQGTTVTVSS VL: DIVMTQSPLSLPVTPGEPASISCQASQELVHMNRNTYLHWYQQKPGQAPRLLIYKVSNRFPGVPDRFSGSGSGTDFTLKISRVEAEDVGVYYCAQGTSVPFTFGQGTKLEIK
2
